molecular target: human Q63R variant CB2R (Homo sapiens, UniProt P34972, Q63R); assay: cAMP assay in CHO cells; conditions: mean ± SD
Sequence (P34972 whole entry Q63R): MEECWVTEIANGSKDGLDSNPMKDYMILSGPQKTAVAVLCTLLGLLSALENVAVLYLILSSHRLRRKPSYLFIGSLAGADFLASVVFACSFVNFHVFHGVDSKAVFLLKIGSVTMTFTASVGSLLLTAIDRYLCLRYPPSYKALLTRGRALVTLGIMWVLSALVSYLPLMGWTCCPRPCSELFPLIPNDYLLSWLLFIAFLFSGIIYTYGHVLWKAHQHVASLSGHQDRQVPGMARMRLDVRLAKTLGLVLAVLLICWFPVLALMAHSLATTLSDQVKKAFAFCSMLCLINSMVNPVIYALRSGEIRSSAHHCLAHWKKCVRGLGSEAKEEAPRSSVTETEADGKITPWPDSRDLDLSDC
Observation type: pEC50
pEC50 here is simply -log10 of the concentration when that concentration is written in mol/L.

Any idea what its pEC50 is? The compound is Cn1c(C(C)(C)C)cc(=NC(=O)c2cc(C(F)(F)F)ccc2OCC(C)(C)O)n1CC1CCC1 [RNB-61]
9.54

----------
Catalogue of solubility values
Assay: Solubility (Table 1)
Type: physicochemical
Conditions: thermodynamic from solid
Experimental: For the determination of the octanol/water distribution coefficient (logD), the carrier-mediated distribution system (CAMDIS)-assay was used as described elsewhere.[38] Kinetic and thermodynamic solubilities were assessed using the lyophilization solubility assay (LYSA) and thermodynamic solubility assay (THESA), respectively. […] Each test compound was quantified using a 6-point calibration curve prepared with the same DMSO starting solution. […]

Examples with answers:
# Record smiles, Observation type, Test value
measured = [
    ("COCCOCCc1cc(NC(=O)C(C)(C)S(=O)(=O)C2CCOCC2)on1", "solubility", "> 510 µg/mL"),
    ("N#Cc1cc(NC(=O)CCc2nc(-c3ccc(F)cc3Cl)no2)cnc1CC(F)(F)F", "solubility", "< 1 µg/mL"),
    ("CC1(C)C(C(=O)c2cn(CCN3CCOCC3)c3ccccc23)C1(C)C", "solubility", "2 µg/mL"),
]

# input for lookup
Any idea what its solubility is? The molecule is CC(C)(Oc1ccc(C(F)(F)F)cn1)C(=O)Cc1cc(C(C)(C)C)no1
< 1 µg/mL

----------
biological target: UniProt:P21554; assay: Competition binding assay with [3H]-CP55940, HEK cell membranes; conditions: read-out: Ki hCB1R (binding assay); [3H]-CP55940 competition; mean ± SD
Sequence (P21554 whole entry): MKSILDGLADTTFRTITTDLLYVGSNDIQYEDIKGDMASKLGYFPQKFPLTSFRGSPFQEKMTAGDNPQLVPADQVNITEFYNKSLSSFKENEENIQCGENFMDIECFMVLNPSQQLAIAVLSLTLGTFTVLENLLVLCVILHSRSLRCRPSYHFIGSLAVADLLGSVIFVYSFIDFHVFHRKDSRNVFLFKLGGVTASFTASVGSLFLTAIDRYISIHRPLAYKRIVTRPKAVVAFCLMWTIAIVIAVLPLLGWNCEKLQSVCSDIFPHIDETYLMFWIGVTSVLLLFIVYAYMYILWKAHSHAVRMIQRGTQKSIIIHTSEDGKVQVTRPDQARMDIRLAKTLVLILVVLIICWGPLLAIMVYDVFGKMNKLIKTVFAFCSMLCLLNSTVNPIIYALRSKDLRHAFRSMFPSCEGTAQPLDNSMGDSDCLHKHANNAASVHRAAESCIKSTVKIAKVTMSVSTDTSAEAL
Observation type: pKi
pKi here is simply -log10 of the concentration when that concentration is written in mol/L.

Any idea what its pKi is? The compound is Cn1c(C(C)(C)C)cc(=NC(=O)c2cc(C(F)(F)F)ccc2OCC(C)(C)O)n1CC1CCC1 [RNB-61]
5.41

----------
experiment: Single-dose pharmacokinetics in mice; format: in vivo; conditions: mouse, plasma, po, 26 mg kg^–1 p.o.
Observation type: Tmax (h)
Numbers only here, please. The scale is h.

Any idea what its Tmax is? The compound is Cn1c(C(C)(C)C)cc(=NC(=O)c2cc(C(F)(F)F)ccc2OCC(C)(C)O)n1CC1CCC1 [RNB-61]
2

----------
biological target: GPR55 (Homo sapiens); assay: Endocannabinoid target profiling: GPR55; conditions: Table S1; read-out: GPR55 (Ki, IC50)
Sequence (Q9Y2T6 whole entry, species assumed): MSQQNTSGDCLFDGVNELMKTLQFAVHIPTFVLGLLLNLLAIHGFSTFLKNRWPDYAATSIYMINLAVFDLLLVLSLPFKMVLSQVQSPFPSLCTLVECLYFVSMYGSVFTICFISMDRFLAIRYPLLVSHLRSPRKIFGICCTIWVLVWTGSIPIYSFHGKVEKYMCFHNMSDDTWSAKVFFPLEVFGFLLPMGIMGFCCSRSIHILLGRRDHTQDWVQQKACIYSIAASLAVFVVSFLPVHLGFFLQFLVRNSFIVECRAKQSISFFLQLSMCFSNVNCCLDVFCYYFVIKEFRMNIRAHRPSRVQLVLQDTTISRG
Observation type: IC50

Any idea what its IC50 is? The molecule is Cn1c(C(C)(C)C)cc(=NC(=O)c2cc(C(F)(F)F)ccc2OCC(C)(C)O)n1CC1CCC1
> 50 µM

----------
assay: Single-dose pharmacokinetics in male Wistar rats; assay type: in vivo; details: rat, plasma, po, 3 mg kg^–1 p.o.
Observation type: bioavailability (%)
Numbers only here, please. The scale is %.

Any idea what its bioavailability is? The compound is Cn1c(C(C)(C)C)cc(=NC(=O)c2cc(C(F)(F)F)ccc2OCC(C)(C)O)n1CC1CCC1
48

----------
test: Single-dose pharmacokinetics in mice; type: in vivo; conditions: mouse, plasma, iv, 2 mg kg^–1 i.v.
Observation type: half-life (h)
Numbers only here, please. The scale is h.

Any idea what its half-life is? The molecule is Cn1c(C(C)(C)C)cc(=NC(=O)c2cc(C(F)(F)F)ccc2OCC(C)(C)O)n1CC1CCC1 [RNB-61]
7.7
